- Assay system: 5HT2 receptors (Rattus norvegicus)
- Construct: from tissue; host or cells: external jugular vein of male Wistar rats
- Sequence (P14842 whole entry): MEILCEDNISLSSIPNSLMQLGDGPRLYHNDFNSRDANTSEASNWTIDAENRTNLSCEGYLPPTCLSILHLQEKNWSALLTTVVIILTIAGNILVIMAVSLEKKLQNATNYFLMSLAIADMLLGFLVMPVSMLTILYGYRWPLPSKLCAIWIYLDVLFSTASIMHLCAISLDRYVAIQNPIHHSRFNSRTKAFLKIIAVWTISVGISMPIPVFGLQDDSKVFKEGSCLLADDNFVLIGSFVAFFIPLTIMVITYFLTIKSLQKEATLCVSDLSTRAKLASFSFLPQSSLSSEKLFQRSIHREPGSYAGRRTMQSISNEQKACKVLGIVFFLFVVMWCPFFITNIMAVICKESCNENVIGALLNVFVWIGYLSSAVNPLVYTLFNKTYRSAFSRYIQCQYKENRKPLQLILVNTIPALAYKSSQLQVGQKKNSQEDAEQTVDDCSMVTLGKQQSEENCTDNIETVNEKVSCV
- Test details: Apparent dissociation constants (KB) against serotonin contraction in rat jugular vein
- Format: cell-based
- Experimental context: serotonin agonist, antagonist incubated one hour, read-out: 5HT2 -Log Kb ± S.E. (converted)
Structures can show the parent of a compound that is named as a salt.
Please go through the items and note down their Kb.
Numbers only, in nM.

>>> value_reported("CC(OC(=O)[C@@H]1C[C@@H]2c3cccc4c3c(cn4C(C)C)C[C@H]2N(C)C1)C(=O)c1ccccc1 (mixture of isomers) [R^3=CH3 R^4=H R^10=H maleate]")
4.57
>>> value_reported("CC(C)n1cc2c3c(cccc31)[C@H]1C[C@@H](C(=O)OC(C)(C)C(=O)c3ccccc3)CN(C)[C@@H]1C2 [R^3=CH3 R^4=CH3 R^10=H maleate, maleate monohydrate]")
14.8

Batch request: Kb for each of the following compounds.
1. CC(C)n1cc2c3c(cccc31)[C@H]1C[C@@H](C(=O)OCC(=O)c3ccc(O)cc3)CN(C)[C@@H]1C2 [R^3=H R^4=H R^10=p-OH maleate.H2 O]
2. CC(OC(=O)[C@@H]1C[C@@H]2c3cccc4c3c(cn4C(C)C)C[C@H]2N(C)C1)C(=O)c1ccc(O)cc1 (some centres unmarked) [R^3=CH3 R^4=H R^10=p-OH maleate]
3. COc1ccc(C(=O)COC(=O)[C@@H]2C[C@@H]3c4cccc5c4c(cn5C(C)C)C[C@H]3N(C)C2)cc1 [R^3=H R^4=H R^10=p-OCH3 maleate]
4. CC(C)n1cc2c3c(cccc31)[C@H]1C[C@@H](C(=O)OCC(=O)c3ccccc3)CN(C)[C@@H]1C2 [R^3=H R^4=H R^10=H maleate.H2 O, maleate monohydrate]

Output:
1: 0.138; 2: 0.347; 3: 1.29; 4: 15.1

Batch request: Kb for each of the following compounds.
1. CC(C)n1cc2c3c(cccc31)[C@H]1C[C@@H](C(=O)OCC(=O)c3ccc(Cl)cc3)CN(C)[C@@H]1C2 [R^3=H R^4=H R^10=p-Cl maleate]
2. CC(C)n1cc2c3c(cccc31)[C@H]1C[C@@H](C(=O)OCC(=O)c3ccc(-c4ccccc4)cc3)CN(C)[C@@H]1C2 [R^3=H R^4=H R^10=p-phenyl maleate]

Output:
1. 34.7
2. 70.8
